Target: human TRPA1 (Homo sapiens (Human))
Sequence (O75762 whole entry): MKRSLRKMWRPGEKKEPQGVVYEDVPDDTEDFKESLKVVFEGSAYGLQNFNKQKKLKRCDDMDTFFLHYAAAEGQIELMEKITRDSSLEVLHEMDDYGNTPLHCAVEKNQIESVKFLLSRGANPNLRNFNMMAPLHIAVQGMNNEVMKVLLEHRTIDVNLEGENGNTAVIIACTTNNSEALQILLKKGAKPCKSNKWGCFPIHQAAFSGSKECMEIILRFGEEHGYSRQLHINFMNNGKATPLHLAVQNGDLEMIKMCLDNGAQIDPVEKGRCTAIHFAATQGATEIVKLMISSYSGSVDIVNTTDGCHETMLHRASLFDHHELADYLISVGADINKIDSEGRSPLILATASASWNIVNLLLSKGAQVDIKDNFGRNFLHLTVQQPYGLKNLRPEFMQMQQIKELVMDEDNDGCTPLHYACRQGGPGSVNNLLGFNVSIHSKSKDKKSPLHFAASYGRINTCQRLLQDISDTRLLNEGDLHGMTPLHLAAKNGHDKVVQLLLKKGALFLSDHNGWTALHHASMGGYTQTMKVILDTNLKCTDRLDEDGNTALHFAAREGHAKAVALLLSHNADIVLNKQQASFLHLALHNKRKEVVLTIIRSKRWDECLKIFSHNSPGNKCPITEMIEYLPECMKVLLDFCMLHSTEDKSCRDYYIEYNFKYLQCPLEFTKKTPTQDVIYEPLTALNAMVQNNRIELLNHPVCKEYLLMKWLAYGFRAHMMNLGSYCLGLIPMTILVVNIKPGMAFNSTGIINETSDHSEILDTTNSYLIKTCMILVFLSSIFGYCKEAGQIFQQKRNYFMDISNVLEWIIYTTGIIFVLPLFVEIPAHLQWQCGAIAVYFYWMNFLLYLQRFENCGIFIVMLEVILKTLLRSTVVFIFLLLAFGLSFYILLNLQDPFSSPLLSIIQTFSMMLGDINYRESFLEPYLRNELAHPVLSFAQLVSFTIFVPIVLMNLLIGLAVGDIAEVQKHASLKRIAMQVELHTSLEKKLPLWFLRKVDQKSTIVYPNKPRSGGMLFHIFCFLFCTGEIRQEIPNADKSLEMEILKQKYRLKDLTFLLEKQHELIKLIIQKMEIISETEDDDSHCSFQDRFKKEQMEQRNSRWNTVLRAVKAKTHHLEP
Assay: Measurement of TRPA1 antagonist activity (1): intracellular calcium increase
Assay type: cell-based
Details: 293T cells transfected with human TRPA1 expression plasmid; allylisothiocyanate 20 μM stimulation; intracellular calcium fluorescence; read-out: hTRPA1 IC50
Protocol: Measurement of TRPA1 Antagonist Activity (1) Human TRPA1 Expression Plasmid […] The 384 well plate was recovered, and the medium was removed. […] After 10 min, allylisothiocyanate (12 μL) was further added at a final concentration of 20 μM, and changes in the relative fluorescence intensity after addition of allylisothiocyanate were measured for 5 min. […]
pIC50: −log10 of the molar value.
READOUT NAME: pIC50

> print(dat)
                                   molecule  readout.name  reported.value
1  O=C(NCc1cc(-c2ccc(OC(F)(F)F)cc2)ccn1)[C@@H]1CCCN1S(=O)(=O)c1cc2cc(F)ccc2o1         pIC50            8.62
2  O=C(NCc1cc(-c2ccc(C(F)(F)F)nc2)ccn1)[C@@H]1CCCN1S(=O)(=O)c1cc2cc(F)ccc2o1         pIC50            8.82
3  O=C(NCc1cccc(OCC2CCCOC2)c1)[C@@H]1CCCN1S(=O)(=O)c1cc2cc(F)ccc2o1 (stereo partly shown)         pIC50            8.37
4  N#Cc1cccc(COc2cccc(CNC(=O)[C@@H]3CCCN3S(=O)(=O)c3cc4ccccc4o3)c2)c1         pIC50            8.10
5  O=C(NCc1cc(-c2ccc(C(F)(F)F)cn2)ccn1)[C@@H]1[C@H]2C[C@H]2CN1S(=O)(=O)c1cc2cc(F)ccc2o1         pIC50            7.19

[P] O=C(NCc1cc(-c2cnc(C3CC3)nc2)ccc1F)[C@@H]1CCCN1S(=O)(=O)c1cc2ccccc2o1
[Q] O=C(NCc1ccnc(-c2ccc(OC(F)(F)F)cc2)c1)[C@@H]1CCCN1S(=O)(=O)c1cc2cc(F)ccc2o1
### Prompt // returns P or Q , whichever has the lower pIC50 Label of pick, please.
### Response P
(P: 7.77, Q: 9.21)

Where do the numbers come from? From patent US10626112B2.
